src = the supplement of paper PMC12317010

- procedureText: collision cross section in nitrogen (drift tube, single-field); higher = larger gas-phase ion size;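 note: chemical standards at 10 µM analysed by drift tube IMS-QTOF MS in about 3.95 torr nitrogen, mean of duplicate injections differing ≤1%, mass error below 10 ppm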
- runConditions: ion type: [M+H]; ion source: APCI; ion mode: Positive
testReadout: collision cross section in nitrogen (Å²)
Lab book: enter the figure in Å², no units written.

Tell us which collision cross section in nitrogen value is on record for `O=c1cc(-c2ccccc2)oc2ccc3ccccc3c12`
160.8

Identify the reported collision cross section in nitrogen for the following entry. `CCCCOC(=O)N(C)SN(C)C(=O)Oc1cccc2c1OC(C)(C)C2`
191.3

Kindly indicate its recorded collision cross section in nitrogen. Item: `OC(c1ccc(Cl)cc1)(c1ccc(Cl)cc1)c1cccnc1`
183.7

Consider the molecule `COc1ccc(N)c(C)c1` and give its recorded collision cross section in nitrogen.
124.8

* * *

- procedureText: collision cross section in nitrogen (drift tube, single-field); higher = larger gas-phase ion size
- runConditions: ion type: [M-H]; ion source: ESI; ion mode: Negative
testReadout: collision cross section in nitrogen (Å²)
Number in Å², nothing else.

Determine its reported collision cross section in nitrogen: CCc1ccc(C(=O)NN(C(=O)c2cc(C)cc(C)c2)C(C)(C)C)cc1 [Tebufenozide]
193.6

Give a short answer stating reported collision cross section in nitrogen for CC(=O)CC(=O)Nc1ccc(C)cc1C [N-(2,4-Dimethylphenyl)-3-oxobutanamide] .
148.8

Identify the reported collision cross section in nitrogen for the following entry. `Cc1cc(O)c(Cl)c(C)c1Cl`
135.4

State its collision cross section in nitrogen for this compound: Oc1ccccc1-c1ccccc1 [Sodium 2-phenylphenate tetrahydrate]
136.6

* * *

- procedureText: collision cross section in nitrogen (drift tube, single-field); higher = larger gas-phase ion size
- runConditions: ion type: [M+H]; ion source: APCI; ion mode: Positive
Structures can show the parent of a compound that is named as a salt.
testReadout: collision cross section in nitrogen (Å²)
Write the answer as a number in Å², unit excluded.

Output collision cross section in nitrogen of `C[C@]12C=CC3=C4CCC(=O)C=C4CC[C@H]3[C@@H]1CC[C@@H]2O`
166.2

Read off the recorded collision cross section in nitrogen for COCC(C)N(C(=O)CCl)c1c(C)csc1C (configuration not stated)
155.2

Identify measured collision cross section in nitrogen associated with CCCCOC(=O)C(C)Oc1ccc(Oc2ccc(C(F)(F)F)cn2)cc1 (configuration not stated)
195.5

Please give the documented collision cross section in nitrogen of `CC(C)(O)c1ccc(CNC(=O)c2cccnc2Oc2ccc3nonc3c2)cc1`
196.9

# return recorded collision cross section in nitrogen for entry CCCN[C@H]1CCc2nc(N)sc2C1 [Pramipexole dihydrochloride monohydrate]
152.8

Write down collision cross section in nitrogen measured for item `CC(C)c1ccc(NC(=O)N(C)C)cc1`
152.9

Return value of collision cross section in nitrogen for input O=c1n(CC2CO2)c(=O)n(CC2CO2)c(=O)n1CC1CO1 (configuration not stated) [Tris(2,3-epoxypropyl)isocyanurate] , no commentary.
158.6

* * *

Exercise: for every item that follows, state its recorded collision cross section in nitrogen.
- procedureText: collision cross section in nitrogen (drift tube, single-field); higher = larger gas-phase ion size
- runConditions: ion type: [M+]; ion source: APCI; ion mode: Positive

Return reported collision cross section in nitrogen. Input molecule: CCCSc1ccc2[nH]c(NC(=O)OC)nc2c1 [Albendazole]
160.4 Å²

Look up and report measured collision cross section in nitrogen for this entry: O=C(Nc1ccc2c(c1)Cc1ccccc1-2)C(F)(F)F [N-(2-Fluorenyl)-2,2,2-trifluoroacetamide]
156.6 Å²

Please indicate collision cross section in nitrogen recorded for Cc1ccc(Nc2ccc(O)c3c2C(=O)c2ccccc2C3=O)cc1 [D&C Violet 2]
174 Å²

Name the recorded collision cross section in nitrogen of the molecule listed here: c1ccc2c(c1)ccc1cc3c(ccc4ccccc43)cc12 [Dibenz[a,h]anthracene]
160 Å²

Answer with reported collision cross section in nitrogen of CC(C)(C)c1cc(O)c(C(C)(C)C)cc1O [2,5-Di-tert-butylbenzene-1,4-diol]
155.1 Å²

Query collision cross section in nitrogen for c1ccc(Nc2ccccc2)cc1 [Diphenylamine]
133.9 Å²

Report collision cross section in nitrogen for c1cc2ccc3cccc4ccc(c1)c2c34 [Pyrene]
136.3 Å²

Let me know recorded collision cross section in nitrogen for Cc1ccc2c(c1N)C(=O)c1ccccc1C2=O [1-Amino-2-methylanthraquinone] , thanks.
147.6 Å²

Check the records and state collision cross section in nitrogen for COc1ccccc1C=O [2-Methoxybenzaldehyde]
124.1 Å²

Look up and report measured collision cross section in nitrogen for this entry: c1ccc(Nc2ccc3ccccc3c2)cc1 [N-Phenyl-2-naphthylamine]
149.2 Å²

Specify collision cross section in nitrogen for C#CCN1C(=O)COc2cc(F)c(N3C(=O)C4=C(CCCC4)C3=O)cc21 [Flumioxazin] and stop.
181 Å²

Tell us which collision cross section in nitrogen value is on record for CCOC(=O)NC(=S)Nc1ccccc1NC(=S)NC(=O)OCC [Thiophanate]
187.5 Å²

Return collision cross section in nitrogen for the following molecule: COc1cc(C(C)(C)C)c(O)c(C(C)(C)C)c1 [2,6-Di-tert-butyl-4-methoxyphenol]
157.2 Å²

Please look at this molecule and report its collision cross section in nitrogen: c1ccc2cc3c(cc2c1)-c1cccc2cccc-3c12 [Benzo[k]fluoranthene]
151.3 Å²

Answer with reported collision cross section in nitrogen of COc1ccc(-c2coc3cc(O)ccc3c2=O)cc1 [Formononetin]
156.9 Å²

Supply collision cross section in nitrogen value. Item: c1ccc2c(c1)[nH]c1ccccc12 [Carbazole]
130.2 Å²

Given the molecule c1csc(-c2ccc(-c3cccs3)s2)c1 [alpha-Terthiophene] , write its reported collision cross section in nitrogen.
146.4 Å²

Write down collision cross section in nitrogen measured for item c1ccc(Nc2cccc3ccccc23)cc1 [N-Phenyl-1-naphthylamine]
148.7 Å²

Fill in collision cross section in nitrogen for record Cn1c(=S)[nH]c2ccccc21 [1-Methyl-1,3-dihydro-2H-benzimidazole-2-thione]
127.9 Å²

Give me measured collision cross section in nitrogen, please, for this molecule: Cc1cc(C)c(C=C2C(=O)Nc3ccccc32)[nH]1 [SU-5416]
152.2 Å²

* * *

- procedureText: collision cross section in nitrogen (drift tube, single-field); higher = larger gas-phase ion size
- runConditions: ion type: [M-H]; ion source: ESI; ion mode: Negative
Structures can show the parent of a compound that is named as a salt.
Task for the reader: assign each of the following compounds its reported collision cross section in nitrogen.
Your answer should be a plain number; it is taken to be in Å².

Note collision cross section in nitrogen for the compound shown: O=C(O)C(=O)Cc1c[nH]c2ccccc12 [Indole-3-pyruvic acid]
141.6

Answer with reported collision cross section in nitrogen of CCCCCCCCCCCCCCCCCCOS(=O)(=O)O [Octadecyl sulfate sodium salt]
189.8

Note collision cross section in nitrogen for the compound shown: CC(=O)Nc1ccc(O)cc1 [Acetaminophen]
132.5

Read off the recorded collision cross section in nitrogen for CCCCCCCCCCCCCCCC(=O)OC [Methyl hexadecanoate]
173.6

Entry CCCCC(CC)COS(=O)(=O)O (stereo unspecified) [Sodium ethasulfate] needs its collision cross section in nitrogen filled in; supply it.
150.5

Let me know recorded collision cross section in nitrogen for CCCCCCCCCCOS(=O)(=O)O [Sodium decyl sulfate] , thanks.
158.1

Given CC(C)c1cccc(C(C)C)c1O [Propofol] , respond with its collision cross section in nitrogen.
143.5

Assign collision cross section in nitrogen to the following record: CS(=O)(=O)c1ccc(C2=C(c3ccccc3)C(=O)OC2)cc1 [Rofecoxib]
174.4

Read the entry CN1COCN(Cc2cnc(Cl)s2)C1=N[N+](=O)[O-] [Thiamethoxam] and write its reported collision cross section in nitrogen.
158.3

Answer with reported collision cross section in nitrogen of CCC(C)(C)c1ccc(O)cc1 [4-(2-Methylbutan-2-yl)phenol]
143.8

Answer with the recorded collision cross section in nitrogen of O=C(NC(=O)c1c(F)cccc1F)Nc1cc(Cl)c(OC(F)(F)C(F)C(F)(F)F)cc1Cl (stereo unspecified) [Lufenuron] only.
205.4

# return recorded collision cross section in nitrogen for entry Nc1nnc(-c2ccc([N+](=O)[O-])o2)o1 [2-Amino-5-(5-nitro-2-furyl)-1,3,4-oxadiazole]
135.3

Query collision cross section in nitrogen for Cc1cc(=O)nc(C(C)C)[nH]1 [2-Isopropyl-6-methyl-4-pyrimidone]
135.5

Give me measured collision cross section in nitrogen, please, for this compound: Oc1ccc(Cc2ccc(O)cc2)cc1 [Bis(4-hydroxyphenyl)methane]
153.6

Query collision cross section in nitrogen for `CC1(C)CCC(C)(C)c2cc(C(=O)Nc3ccc(C(=O)O)cc3)ccc21`
198

Report collision cross section in nitrogen, nothing else, for this compound: CCCCCCCC/C=C\CCCCCCCC(=O)O [Oleic acid]
176.3

Please report the measured collision cross section in nitrogen for O=S(=O)(O)c1ccc(O)c2ncccc12 [8-Hydroxyquinoline-5-sulfonic acid hydrate (1:x)]
142.4

Please list collision cross section in nitrogen recorded for the compound Cc1ccc(S(N)(=O)=O)cc1 [4-Toluenesulfonamide]
136.3

Quote collision cross section in nitrogen reported for CCCCCCCC/C=C\CCCCCCCC(=O)N(C)CC(=O)O [Oleyl sarcosine] please.
191.2

Specify measured collision cross section in nitrogen for O=C(O)CC(O)C(=O)O (stereo unspecified) [Malic acid] .
116.9

Supply measured collision cross section in nitrogen of Nc1ncnc2[nH]cnc12 [Adenine] in your reply.
120.9

Answer with the recorded collision cross section in nitrogen for the compound listed here: O=C1Nc2ccc(Cl)cc2[C@@](C#CC2CC2)(C(F)(F)F)O1 [Efavirenz]
168.1

Write down collision cross section in nitrogen measured for item O=C(O)CC(C(=O)O)S(=O)(=O)O (stereo unspecified) [Sulfosuccinic acid]
124.5

Retrieve collision cross section in nitrogen measured for CC1(C)OC[C@@H]2O[C@@]3(C(=O)O)OC(C)(C)O[C@H]3[C@@H]2O1 [Diprogulic acid] and print it.
162.8

Dear colleague, please send me the reported collision cross section in nitrogen for O=C(O)C(F)(F)C(F)(F)C(F)(F)C(F)(F)C(F)(F)C(F)(F)C(F)(F)C(F)(F)C(F)(F)F [Perfluorodecanoic acid] when you can.
175.1

Given CC1(C(=O)Nc2ccc(O)c(Cl)c2Cl)CCCCC1 [Fenhexamid] , respond with its collision cross section in nitrogen.
172.6

Please list collision cross section in nitrogen recorded for the compound CC(C)c1ccc(O)c(C(C)C)c1 [2,4-Diisopropylphenol]
146.7

Report collision cross section in nitrogen, nothing else, for this compound: `CC(C)(C)c1n[nH]c(=S)n(N)c1=O`
142.1

Return the recorded collision cross section in nitrogen value; entry: O=C(Oc1ccc(O)cc1)c1ccccc1 [4-Hydroxyphenyl benzoate]
154.7

Quickly give me recorded collision cross section in nitrogen for N#Cc1cc(Br)c(O)c(Br)c1 [Bromoxynil]
131.2

Give collision cross section in nitrogen for the following compound: Cc1c(C(=O)c2cnn(C)c2O)ccc(S(C)(=O)=O)c1C1=NOCC1 [Topramezone]
182.9
